Ref: patent US20260028354A1

- system-under-test: CRBN/DDB1 (Homo sapiens (Human), UniProt Q96SW2)
- Sequence (Q96SW2 whole entry, species assumed): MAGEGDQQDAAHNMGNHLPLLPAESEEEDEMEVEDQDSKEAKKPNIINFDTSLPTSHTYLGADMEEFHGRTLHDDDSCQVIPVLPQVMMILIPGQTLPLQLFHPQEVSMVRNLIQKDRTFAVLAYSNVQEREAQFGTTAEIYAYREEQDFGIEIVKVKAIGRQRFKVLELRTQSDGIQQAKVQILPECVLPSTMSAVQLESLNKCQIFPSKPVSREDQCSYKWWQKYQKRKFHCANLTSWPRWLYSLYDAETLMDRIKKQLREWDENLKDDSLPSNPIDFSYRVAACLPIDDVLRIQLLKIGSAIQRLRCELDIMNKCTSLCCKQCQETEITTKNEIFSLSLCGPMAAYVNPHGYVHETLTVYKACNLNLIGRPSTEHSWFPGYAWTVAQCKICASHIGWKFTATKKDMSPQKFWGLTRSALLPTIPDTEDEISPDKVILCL
- Sequence (Q16531 whole entry partner, species assumed): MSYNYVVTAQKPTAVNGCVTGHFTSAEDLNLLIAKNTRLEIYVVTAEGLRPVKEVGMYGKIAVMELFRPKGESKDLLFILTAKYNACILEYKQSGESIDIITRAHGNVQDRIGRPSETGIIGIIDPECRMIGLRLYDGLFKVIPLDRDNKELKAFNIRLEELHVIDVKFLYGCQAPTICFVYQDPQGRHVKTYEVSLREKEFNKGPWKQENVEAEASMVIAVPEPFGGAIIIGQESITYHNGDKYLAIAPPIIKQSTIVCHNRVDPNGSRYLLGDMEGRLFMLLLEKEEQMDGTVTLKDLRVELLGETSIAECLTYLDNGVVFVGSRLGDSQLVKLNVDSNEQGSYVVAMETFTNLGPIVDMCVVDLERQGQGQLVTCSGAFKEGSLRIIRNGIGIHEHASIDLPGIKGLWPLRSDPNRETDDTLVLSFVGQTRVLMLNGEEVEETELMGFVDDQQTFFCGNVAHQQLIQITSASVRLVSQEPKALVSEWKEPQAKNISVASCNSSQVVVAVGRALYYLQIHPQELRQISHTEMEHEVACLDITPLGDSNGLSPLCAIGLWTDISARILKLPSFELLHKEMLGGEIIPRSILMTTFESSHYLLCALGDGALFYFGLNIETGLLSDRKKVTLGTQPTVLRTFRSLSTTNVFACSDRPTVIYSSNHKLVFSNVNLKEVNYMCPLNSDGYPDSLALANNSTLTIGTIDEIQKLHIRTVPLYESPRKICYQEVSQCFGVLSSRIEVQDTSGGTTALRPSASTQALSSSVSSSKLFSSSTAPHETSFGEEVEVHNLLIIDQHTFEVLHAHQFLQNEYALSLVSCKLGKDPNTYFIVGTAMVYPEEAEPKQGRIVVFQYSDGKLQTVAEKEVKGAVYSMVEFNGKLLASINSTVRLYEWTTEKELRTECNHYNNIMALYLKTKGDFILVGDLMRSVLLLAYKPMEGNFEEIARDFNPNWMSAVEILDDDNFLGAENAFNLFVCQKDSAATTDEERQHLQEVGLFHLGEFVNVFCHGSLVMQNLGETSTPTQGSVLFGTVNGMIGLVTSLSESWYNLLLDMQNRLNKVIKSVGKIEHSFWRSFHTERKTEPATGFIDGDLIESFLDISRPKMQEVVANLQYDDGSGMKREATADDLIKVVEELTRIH
- test-settings: His tagged CRBN+DDB1, Cy5-labeled Thalidomide probe, one hour; read-out: CRBN HTRF IC50
pIC50: −log10 of the molar value.
Here, each record is paired with measured pIC50 data.
result-type: pIC50

molecule="COc1cc(N2CCC(CN3CC[C@@]4(c5ccc(N[C@H]6CCC(=O)NC6=O)cc5)C(C3)C4(F)F)CC2)ccc1[C@@H]1c2ccc(O)cc2CC[C@@H]1c1ccccc1 (some centres unmarked)" reported_value="< 5.30"
molecule=O=C1CC[C@@H](Nc2ccc([C@@]34CCN(CC5CCC6(CC5)CN(c5ccc([C@@H]7c8ccc(O)cc8CC[C@@H]7c7ccccc7)cc5)C6)C[C@@H]3C4(F)F)cc2)C(=O)N1 reported_value="< 5.30"
molecule=O=C1CC[C@H](N2Cc3c(ccc4c3OCC43CCN(CC4CC5(CCN(c6ncc([C@@H]7c8ccc(O)cc8CC[C@@H]7c7ccccc7)cn6)CC5)C4)CC3)C2=O)C(=O)N1 reported_value="> 7.30"
molecule="COc1cc(N2CC3(CCC(CN4CCN5c6ccc7c(c6OC[C@H]5C4)CN([C@H]4CCC(=O)NC4=O)C7=O)CC3)C2)c(F)cc1[C@@H]1c2ccc(O)cc2CC[C@@H]1c1ccccc1 (single isomer, unassigned)" reported_value="6.30 to 7.30"
molecule=O=C1CC[C@H](N2Cc3c(ccc4c3OCC43CCN(CC4CCN(c5ccc([C@@H]6c7ccc(O)cc7CC[C@@H]6c6ccccc6)cc5)CC4)CC3)C2=O)C(=O)N1 reported_value="> 7.30"

###

- system-under-test: ER in MCF-7 cells (Homo sapiens (Human), UniProt P03372)
- Sequence (P03372 whole entry): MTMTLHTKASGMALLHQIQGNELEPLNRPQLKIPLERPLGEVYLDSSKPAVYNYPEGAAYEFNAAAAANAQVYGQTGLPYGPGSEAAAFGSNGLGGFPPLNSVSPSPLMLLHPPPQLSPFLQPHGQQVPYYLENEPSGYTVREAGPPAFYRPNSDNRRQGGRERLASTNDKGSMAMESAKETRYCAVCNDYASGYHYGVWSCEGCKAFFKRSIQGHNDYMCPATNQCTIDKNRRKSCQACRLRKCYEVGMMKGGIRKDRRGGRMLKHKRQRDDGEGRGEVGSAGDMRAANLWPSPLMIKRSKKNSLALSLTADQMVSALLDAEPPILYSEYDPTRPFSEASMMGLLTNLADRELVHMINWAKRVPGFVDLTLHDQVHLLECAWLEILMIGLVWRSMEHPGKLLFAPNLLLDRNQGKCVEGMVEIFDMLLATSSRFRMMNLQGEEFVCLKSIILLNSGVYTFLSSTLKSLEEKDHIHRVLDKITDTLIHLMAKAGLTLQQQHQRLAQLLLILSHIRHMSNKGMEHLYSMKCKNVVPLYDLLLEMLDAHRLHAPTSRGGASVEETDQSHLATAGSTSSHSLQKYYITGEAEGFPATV
- test-description: In-cell Western (ICW) ER degradation assay in MCF-7 cells
- Assay type: cell-based
- test-settings: MCF-7, ER degradation, 16 hrs treatment; read-out: MCF7 DC50
- From the text: In-cell Western (ICW) assays in MCF-7 and T47D cell lines. Day 3: After 16 hrs of compounds treatment, cells were fixed by 4% PFA and permeabilized with elution buffer (0.1% Triton X-100 in 1% PBS Solution). Subsequently, cells were blocked with Intercept (PBS) Blocking Buffer (Li-COR, Odyssey Blocking Buffer), and were stained with ER (1:500, Cell signaling) primary antibody for overnight at cold room. […]
result-type: DC50

compound="O=C1CC[C@H](N2Cc3c(ccc4c3OC[C@H]3CN(CC5CC6(CCN(c7ccc([C@H]8c9ccc(O)cc9CC[C@H]8c8ccccc8)cc7F)CC6)C5)CCN43)C2=O)C(=O)N1 (single isomer, unassigned)" result_type=DC50 reported_value="< 1 nM"
compound="O=C1CC[C@H](N2Cc3cc4c(cc3C2=O)OC[C@@H]2CN(CC3CCC5(CC3)CN(c3ncc([C@@H]6c7ccc(O)cc7CC[C@@H]6c6ccccc6)cn3)C5)CCN42)C(=O)N1 (single isomer, unassigned)" result_type=DC50 reported_value="< 1 nM"

###

- system-under-test: ER in MCF-7 cells (Homo sapiens (Human))
- test-description: In-cell Western (ICW) ER degradation assay in MCF-7 cells
- Assay type: cell-based
- test-settings: MCF-7, ER degradation, 16 hrs treatment; read-out: MCF7 DC50
result-type: DC50

compound=COc1c([C@@H]2c3ccc(O)cc3CC[C@@H]2c2ccccc2)ccc(N2CCC(CN3CCC4(CC3)COc3cc5c(cc34)CN([C@H]3CCC(=O)NC3=O)C5=O)CC2)c1F system_under_test="ER in MCF-7 cells (Homo sapiens (Human))" result_type=DC50 reported_value="< 1 nM"
compound="O=C1CC[C@H](Nc2ccc(C3CCN(C[C@@H]4COC5(CCN(c6ccc([C@@H]7c8ccc(O)cc8CC[C@@H]7c7ccccc7)cc6)CC5)C4)CC3)c(F)c2)C(=O)N1 (single isomer, unassigned)" system_under_test="ER in MCF-7 cells (Homo sapiens (Human))" result_type=DC50 reported_value="> 100 nM"
compound=O=C1CC[C@H](N2Cc3c(ccc4c3OCC43CCN(CC4CCC5(CC4)CN(c4ccc([C@@H]6c7ccc(O)cc7CC[C@@H]6c6ccccc6)cn4)C5)CC3)C2=O)C(=O)N1 system_under_test="ER in MCF-7 cells (Homo sapiens (Human))" result_type=DC50 reported_value="< 1 nM"
compound="O=C1CC[C@H](N2Cc3cc4c(cc3C2=O)OC[C@@H]2CN(CC3CCC5(CC3)CN(c3ccc([C@H]6c7ccc(O)cc7CC[C@H]6c6ccccc6)cc3F)C5)CCN42)C(=O)N1 (single isomer, unassigned)" system_under_test="ER in MCF-7 cells (Homo sapiens (Human))" result_type=DC50 reported_value="10 to 100 nM"
compound="O=C1CC[C@H](N2Cc3cc4c(cc3C2=O)OC[C@@H]2CN(CC3COC5(C3)CN(c3ccc([C@H]6c7ccc(O)cc7CC[C@H]6c6ccccc6)cc3)C5)CCN42)C(=O)N1 (single isomer, unassigned)" system_under_test="ER in MCF-7 cells (Homo sapiens (Human))" result_type=DC50 reported_value="< 1 nM"
compound=O=C1CC[C@H](N2Cc3cc4c(cc3C2=O)OCC42CCN(CC3CCC4(CC3)CN(c3ccc([C@@H]5c6ccc(O)cc6CC[C@@H]5c5ccccc5)cn3)C4)CC2)C(=O)N1 system_under_test="ER in MCF-7 cells (Homo sapiens (Human))" result_type=DC50 reported_value="1 to 10 nM"
compound="O=C1CC[C@H](N2Cc3c(ccc4c3OC[C@H]3CN(CC5CC6(CCN(c7ncc([C@H]8c9ccc(O)cc9CC[C@H]8c8ccccc8)cn7)CC6)C5)CCN43)C2=O)C(=O)N1 (single isomer, unassigned)" system_under_test="ER in MCF-7 cells (Homo sapiens (Human))" result_type=DC50 reported_value="1 to 10 nM"
compound="O=C1CC[C@H](N2Cc3cc4c(cc3C2=O)OC[C@@H]2CN(CC3CCC5(CC3)CN(c3ccc([C@@H]6c7ccc(O)cc7CC[C@@H]6c6ccccc6)cn3)C5)CCN42)C(=O)N1 [Compound A130]" system_under_test="ER in MCF-7 cells (Homo sapiens (Human))" result_type=DC50 reported_value="1 to 10 nM"
compound="COc1cc(N2CCC(CN3CCC(c4ccc(N[C@H]5CCC(=O)NC5=O)cc4)CC3)CC2)ccc1[C@@H]1c2ccc(O)cc2CC[C@@H]1c1ccccc1 (single isomer, unassigned)" system_under_test="ER in MCF-7 cells (Homo sapiens (Human))" result_type=DC50 reported_value="1 to 10 nM"
compound="COc1cc(N2CCC3(CC2)CC(CN2CCC(c4ccc(N[C@H]5CCC(=O)NC5=O)cc4)CC2)C3)c(F)cc1[C@H]1c2ccc(O)cc2CC[C@H]1c1ccccc1 (single isomer, unassigned)" system_under_test="ER in MCF-7 cells (Homo sapiens (Human))" result_type=DC50 reported_value="10 to 100 nM"
compound=COc1cc(N2CCC(CCN3CCN4c5cc(C)c6c(c5OC[C@H]4C3)CN([C@H]3CCC(=O)NC3=O)C6=O)CC2)c(F)cc1[C@@H]1c2ccc(O)cc2CC[C@@H]1c1ccccc1 system_under_test="ER in MCF-7 cells (Homo sapiens (Human))" result_type=DC50 reported_value="< 1 nM"
compound=COc1cc([C@H]2c3ccc(O)cc3CC[C@H]2c2ccccc2)c(F)cc1N1CCC2(CC1)CC(CN1CCN3c4ccc5c(c4OC[C@H]3C1)CN([C@H]1CCC(=O)NC1=O)C5=O)C2 system_under_test="ER in MCF-7 cells (Homo sapiens (Human))" result_type=DC50 reported_value="10 to 100 nM"
compound="COc1cc(N2CCC(CN3CCC(c4ccc(N[C@@H]5CCC(=O)NC5=O)cc4F)CC3)CC2)ccc1[C@@H]1c2ccc(O)cc2CC[C@@H]1c1ccccc1 (single isomer, unassigned)" system_under_test="ER in MCF-7 cells (Homo sapiens (Human))" result_type=DC50 reported_value="< 1 nM"
compound=O=C1CC[C@H](N2Cc3c(ccc4c3OCC43CCN(CC4CCC5(CC4)CN(c4ccc([C@@H]6c7ccc(O)cc7CC[C@@H]6c6ccccc6)cc4F)C5)CC3)C2=O)C(=O)N1 system_under_test="ER in MCF-7 cells (Homo sapiens (Human))" result_type=DC50 reported_value="< 1 nM"
compound=COc1cc(N2CCC3(CC[C@H](CN4CCC5(CC4)COc4c5cc(Cl)c5c4CN([C@H]4CCC(=O)NC4=O)C5=O)CO3)CC2)c(F)cc1[C@@H]1c2ccc(O)cc2CC[C@@H]1c1ccccc1 system_under_test="ER in MCF-7 cells (Homo sapiens (Human))" result_type=DC50 reported_value="< 1 nM"
compound="COc1cc(N2CCC3(CC2)C[C@H](CN2CCN4c5ccc6c(c5OC[C@H]4C2)CN([C@H]2CCC(=O)NC2=O)C6=O)CO3)ccc1[C@@H]1c2ccc(O)cc2CC[C@@H]1c1ccccc1 (single isomer, unassigned)" system_under_test="ER in MCF-7 cells (Homo sapiens (Human))" result_type=DC50 reported_value="< 1 nM"
compound="COc1cc(N2CCC3(CC2)CC(CN2CCN4c5cc6c(cc5OC[C@@H]4C2)C(=O)N([C@H]2CCC(=O)NC2=O)C6)C3)ccc1[C@H]1c2ccc(O)cc2CC[C@H]1c1ccccc1 (single isomer, unassigned)" system_under_test="ER in MCF-7 cells (Homo sapiens (Human))" result_type=DC50 reported_value="10 to 100 nM"
compound=O=C1CC[C@H](N2Cc3c(ccc4c3OCC43CCN(CC4CC5(CCN(c6ccc([C@H]7c8ccc(O)cc8CC[C@H]7c7ccccc7)cc6F)CC5)C4)CC3)C2=O)C(=O)N1 system_under_test="ER in MCF-7 cells (Homo sapiens (Human))" result_type=DC50 reported_value="< 1 nM"
